Values from PubChem BioAssay (NCI)

system: SK-OV-3 ovarian; test: NCI tumour cell line growth inhibition, 48 h
TGI values, listed per item

[
  {
    "Compound": "CC(C)OP(=O)(OC(C)C)C1=NN(c2ccc([N+](=O)[O-])cc2)C(P(=O)(OC(C)C)OC(C)C)=NN1c1ccc([N+](=O)[O-])cc1",
    "Tested Target": "SK-OV-3 ovarian",
    "TGI": "> 100 µM"
  },
  {
    "Compound": "CSc1nc(NC2OC(COC(C)=O)C(OC(C)=O)C(OC(C)=O)C2OC(C)=O)c(N=C(C)C(C)=O)c(=O)[nH]1 (configuration not stated)",
    "Tested Target": "SK-OV-3 ovarian",
    "TGI": "> 100 µM"
  },
  {
    "Compound": "CC(C)(O)C1CC[C@]2(C)[C@H]3CC[C@@H]4[C@@]5(C)CCCC(C)(C)[C@@H]5CC[C@@]4(C)[C@]3(C)CC[C@@H]12 (some centres not stated)",
    "Tested Target": "SK-OV-3 ovarian",
    "TGI": "> 100 µM"
  },
  {
    "Compound": "COCC1OC(S(=O)(=O)c2ccccc2)C(O)C(OC)C1OC (configuration not stated)",
    "Tested Target": "SK-OV-3 ovarian",
    "TGI": "> 100 µM"
  },
  {
    "Compound": "CCN1CCN(c2cc(C)nc(N(CCCNc3ccnc4cc(Cl)ccc34)Cc3ccc4c(c3)OCO4)n2)CC1",
    "Tested Target": "SK-OV-3 ovarian",
    "TGI": "34.8 µM"
  },
  {
    "Compound": "COC(=O)NNC(c1ccc(Cl)cc1)c1ccc(Cl)cc1",
    "Tested Target": "SK-OV-3 ovarian",
    "TGI": "58.6 µM"
  },
  {
    "Compound": "COc1ccc2nc3c(c(NCCCN(C)C)c2c1)CCCC3",
    "Tested Target": "SK-OV-3 ovarian",
    "TGI": "58.4 µM"
  },
  {
    "Compound": "COc1ccccc1N=Nc1c(O)c(S(=O)(=O)O)cc2cc(S(=O)(=O)O)ccc12",
    "Tested Target": "SK-OV-3 ovarian",
    "TGI": "> 100 µM"
  },
  {
    "Compound": "COc1ccc(OC(C(=O)O)C(C)C)c2c1CCCC2=O (configuration not stated)",
    "Tested Target": "SK-OV-3 ovarian",
    "TGI": "> 100 µM"
  },
  {
    "Compound": "CCCC1C(=O)Nc2cccc3ncn(c23)C1=O (configuration not stated)",
    "Tested Target": "SK-OV-3 ovarian",
    "TGI": "> 100 µM"
  },
  {
    "Compound": "O=C(Sc1c(-c2ccccc2)c(=O)n(-c2ccccc2)c(=S)n1-c1ccccc1)c1cccs1",
    "Tested Target": "SK-OV-3 ovarian",
    "TGI": "> 100 µM"
  },
  {
    "Compound": "NS(=O)(=O)c1ccc(N=Nc2c(O)[nH]c3ccc(C(=O)NCc4ccncc4)cc23)cc1",
    "Tested Target": "SK-OV-3 ovarian",
    "TGI": "> 25 µM"
  },
  {
    "Compound": "Cc1cccc2nc3c(=O)[nH]c(=O)nc-3n(C)c12",
    "Tested Target": "SK-OV-3 ovarian",
    "TGI": "> 100 µM"
  },
  {
    "Compound": "O=C1C2=C(C(=O)c3cnccc31)C1C=CC2CC1 (configuration not stated)",
    "Tested Target": "SK-OV-3 ovarian",
    "TGI": "10.4 µM"
  },
  {
    "Compound": "COC(=O)C1=C(CS(=O)c2ccc([N+](=O)[O-])cc2[N+](=O)[O-])C2C=CC1C2 (configuration not stated)",
    "Tested Target": "SK-OV-3 ovarian",
    "TGI": "> 100 µM"
  },
  {
    "Compound": "Cc1ccc(S(=O)(=O)[C@@H](Cl)[C@H]2N=C(Cl)NN=C2c2ccccc2)cc1",
    "Tested Target": "SK-OV-3 ovarian",
    "TGI": "> 100 µM"
  },
  {
    "Compound": "CC(=O)NNc1nc(C)c(C(=O)NNC(=O)C(=O)Nc2cccc(C(C)=O)c2)s1",
    "Tested Target": "SK-OV-3 ovarian",
    "TGI": "32.5 µM"
  }
]
